Target: HIV-1 YU-2 gp120 (HIV-1 (YU-2), UniProt P35961)
Experiment: SPR
measurementType: Kd (nM)
Respond with the bare value in nM.

Here's what some known entries look like.
>  <binder>
Fab m18 (wild type) (Fab, V domains shown) VH: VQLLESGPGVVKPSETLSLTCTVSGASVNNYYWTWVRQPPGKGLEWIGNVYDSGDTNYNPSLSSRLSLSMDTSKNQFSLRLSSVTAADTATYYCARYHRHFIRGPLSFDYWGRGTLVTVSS VL: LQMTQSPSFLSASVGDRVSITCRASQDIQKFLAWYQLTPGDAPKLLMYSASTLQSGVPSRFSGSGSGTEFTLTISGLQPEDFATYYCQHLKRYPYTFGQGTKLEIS

>  <unitName>
nM

>  <Kd>
1.4

$$$$
>  <binder>
Fab m18 D28A (LCDR1) (Fab, V domains shown) VH: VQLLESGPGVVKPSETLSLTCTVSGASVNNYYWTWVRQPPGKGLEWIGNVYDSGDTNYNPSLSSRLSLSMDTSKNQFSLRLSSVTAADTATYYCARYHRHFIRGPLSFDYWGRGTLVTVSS VL: LQMTQSPSFLSASVGDRVSITCRASQAIQKFLAWYQLTPGDAPKLLMYSASTLQSGVPSRFSGSGSGTEFTLTISGLQPEDFATYYCQHLKRYPYTFGQGTKLEIS

>  <unitName>
nM

>  <Kd>
0.7

$$$$

Now let's try a different one.
Sample Fab m18 S62A (HCDR2) (Fab, V domains shown) VH: VQLLESGPGVVKPSETLSLTCTVSGASVNNYYWTWVRQPPGKGLEWIGNVYDSGDTNYNPALSSRLSLSMDTSKNQFSLRLSSVTAADTATYYCARYHRHFIRGPLSFDYWGRGTLVTVSS VL: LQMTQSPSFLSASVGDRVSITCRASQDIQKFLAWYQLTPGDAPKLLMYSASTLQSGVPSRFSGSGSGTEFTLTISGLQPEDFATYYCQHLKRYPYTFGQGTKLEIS ; Kd observed: 44.2
